Let's look at some molecules and their measured pIC50.
Test system: Zidovudine-Sensitive Primary Clinical HIV-1 Isolates
Test: p24 drug susceptibility assay, zidovudine-sensitive primary clinical HIV-1 isolates in PBMC
Assay type: cell-based
Conditions: Human immunodeficiency virus 1, PBMC, read-out: IC50 range, range over 10 zidovudine-sensitive clinical isolates
pIC50: −log10 of the molar value.

Cc1cn([C@H]2C[C@H](N=[N+]=[N-])[C@@H](CO)O2)c(=O)[nH]c1=O :: 8.00 to 9.00

Note: attention shifts to another entry.
For this molecule ( Cc1cn([C@H]2C=C[C@@H](CO)O2)c(=O)[nH]c1=O [d4T, 2′,3′-didehydro-2′,3′-dideoxythymidine] ), measured pIC50 is 6.10 to 7.00
